Tested On: RPS6KA3 (RSK2) (Homo sapiens)
Sequence (P51812 whole entry, species assumed): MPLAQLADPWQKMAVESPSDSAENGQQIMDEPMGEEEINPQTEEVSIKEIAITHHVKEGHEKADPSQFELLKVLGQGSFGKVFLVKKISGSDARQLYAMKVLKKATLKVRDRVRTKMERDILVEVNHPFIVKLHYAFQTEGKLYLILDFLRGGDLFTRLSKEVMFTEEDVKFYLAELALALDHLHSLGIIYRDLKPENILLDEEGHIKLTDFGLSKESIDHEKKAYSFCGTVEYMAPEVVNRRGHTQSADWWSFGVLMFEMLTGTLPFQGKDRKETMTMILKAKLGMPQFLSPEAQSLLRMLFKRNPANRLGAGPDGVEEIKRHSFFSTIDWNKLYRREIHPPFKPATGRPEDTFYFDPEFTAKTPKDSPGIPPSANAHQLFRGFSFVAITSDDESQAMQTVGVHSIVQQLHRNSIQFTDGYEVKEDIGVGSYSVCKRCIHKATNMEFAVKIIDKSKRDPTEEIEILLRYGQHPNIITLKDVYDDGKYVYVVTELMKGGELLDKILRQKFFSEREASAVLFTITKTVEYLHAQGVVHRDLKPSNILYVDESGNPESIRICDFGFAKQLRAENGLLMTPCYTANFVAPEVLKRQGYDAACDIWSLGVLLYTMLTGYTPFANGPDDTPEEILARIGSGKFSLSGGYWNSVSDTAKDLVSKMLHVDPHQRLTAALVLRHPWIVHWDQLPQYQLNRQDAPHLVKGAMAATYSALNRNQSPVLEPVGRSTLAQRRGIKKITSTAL
Assay Explanation: FRET-based coupled-enzyme protein kinase inhibition assay
Format: biochemical
Condition Notes: compound at 10 µM, 1% DMSO
Parameter Measured: inhibition at 10 µM (%)
Write down the numeric answer in % and omit the unit.

GET /values?readout=inhibition at 10 µM&system=RPS6KA3 (RSK2) (Homo sapiens)&item= Nc1ncnc2c1ncn2[C@@H]1O[C@H](COC(=O)N2CCS(=O)(=O)CC2)[C@@H](O)[C@H]1O
1

Further cases:
Give the reported inhibition at 10 µM for CN1CCN(CCNC(=O)OC[C@H]2O[C@@H](n3cnc4c(N)ncnc43)[C@H](O)[C@@H]2O)CC1 (system: RPS6KA3 (RSK2) (Homo sapiens)).
6

Then CN(C)CCNC(=O)OC[C@H]1O[C@@H](n2cnc3c(N)ncnc32)[C@H](O)[C@@H]1O ?
7

What do you get for CS(=O)(=O)N1CC2(CCN(C(=O)OC[C@H]3O[C@@H](n4cnc5c(N)ncnc54)[C@H](O)[C@@H]3O)CC2)c2ccccc21 ?
4

----------
Tested On: UniProtKB P23443
Sequence (P23443 whole entry, species assumed): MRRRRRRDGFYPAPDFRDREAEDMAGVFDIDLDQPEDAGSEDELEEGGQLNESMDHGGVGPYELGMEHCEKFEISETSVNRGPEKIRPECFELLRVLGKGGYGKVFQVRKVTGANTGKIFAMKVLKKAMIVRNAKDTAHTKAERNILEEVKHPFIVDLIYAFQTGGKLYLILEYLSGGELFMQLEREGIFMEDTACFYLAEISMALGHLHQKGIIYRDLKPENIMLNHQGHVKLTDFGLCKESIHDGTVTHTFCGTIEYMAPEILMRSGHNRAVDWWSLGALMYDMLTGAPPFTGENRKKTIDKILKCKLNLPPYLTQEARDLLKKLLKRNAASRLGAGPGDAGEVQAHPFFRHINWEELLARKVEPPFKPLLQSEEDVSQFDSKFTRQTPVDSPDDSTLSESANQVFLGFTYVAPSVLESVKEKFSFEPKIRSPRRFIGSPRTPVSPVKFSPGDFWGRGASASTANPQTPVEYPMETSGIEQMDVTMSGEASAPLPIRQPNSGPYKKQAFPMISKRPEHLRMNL
Assay Explanation: FRET-based coupled-enzyme protein kinase inhibition assay
Type: biochemical
Condition Notes: compound at 10 µM, 1% DMSO
Method: A biochemical assay was then performed in order to measure the protein kinase inhibition. It employed a fluorescence-based coupled-enzyme format and was based on the differential sensitivity of phosphorylated and non-phosphorylated peptides to proteolytic cleavage. […] A significant benefit of this ratiometric method for quantitating reaction progress is the elimination of well-to-well variations in FRET-peptide concentration and signal intensities. […]
Parameter Measured: inhibition at 10 µM
Could you kindly put the unit after your number?

Below, each entry is followed by its recorded inhibition at 10 µM result.
Data request, read-out inhibition at 10 µM, for CS(=O)(=O)N1CC2(CCN(C(=O)OC[C@H]3O[C@@H](n4cnc5c(N)ncnc54)[C@H](O)[C@@H]3O)CC2)c2ccccc21
0%

Here is the next compound: Nc1ncnc2c1ncn2[C@@H]1O[C@H](COC(=O)N2CCC(Cc3ccc(F)cc3)C2)[C@@H](O)[C@H]1O (stereo partly drawn)
16%

Moving on to the next compound.
Look up inhibition at 10 µM: Nc1ncnc2c1ncn2[C@@H]1O[C@H](COC(=O)NCCN2CCCC2=O)[C@@H](O)[C@H]1O
0%

----------
Tested On: ERBB2 (HER2) (Homo sapiens)
Sequence (P04626 23-1255, species assumed): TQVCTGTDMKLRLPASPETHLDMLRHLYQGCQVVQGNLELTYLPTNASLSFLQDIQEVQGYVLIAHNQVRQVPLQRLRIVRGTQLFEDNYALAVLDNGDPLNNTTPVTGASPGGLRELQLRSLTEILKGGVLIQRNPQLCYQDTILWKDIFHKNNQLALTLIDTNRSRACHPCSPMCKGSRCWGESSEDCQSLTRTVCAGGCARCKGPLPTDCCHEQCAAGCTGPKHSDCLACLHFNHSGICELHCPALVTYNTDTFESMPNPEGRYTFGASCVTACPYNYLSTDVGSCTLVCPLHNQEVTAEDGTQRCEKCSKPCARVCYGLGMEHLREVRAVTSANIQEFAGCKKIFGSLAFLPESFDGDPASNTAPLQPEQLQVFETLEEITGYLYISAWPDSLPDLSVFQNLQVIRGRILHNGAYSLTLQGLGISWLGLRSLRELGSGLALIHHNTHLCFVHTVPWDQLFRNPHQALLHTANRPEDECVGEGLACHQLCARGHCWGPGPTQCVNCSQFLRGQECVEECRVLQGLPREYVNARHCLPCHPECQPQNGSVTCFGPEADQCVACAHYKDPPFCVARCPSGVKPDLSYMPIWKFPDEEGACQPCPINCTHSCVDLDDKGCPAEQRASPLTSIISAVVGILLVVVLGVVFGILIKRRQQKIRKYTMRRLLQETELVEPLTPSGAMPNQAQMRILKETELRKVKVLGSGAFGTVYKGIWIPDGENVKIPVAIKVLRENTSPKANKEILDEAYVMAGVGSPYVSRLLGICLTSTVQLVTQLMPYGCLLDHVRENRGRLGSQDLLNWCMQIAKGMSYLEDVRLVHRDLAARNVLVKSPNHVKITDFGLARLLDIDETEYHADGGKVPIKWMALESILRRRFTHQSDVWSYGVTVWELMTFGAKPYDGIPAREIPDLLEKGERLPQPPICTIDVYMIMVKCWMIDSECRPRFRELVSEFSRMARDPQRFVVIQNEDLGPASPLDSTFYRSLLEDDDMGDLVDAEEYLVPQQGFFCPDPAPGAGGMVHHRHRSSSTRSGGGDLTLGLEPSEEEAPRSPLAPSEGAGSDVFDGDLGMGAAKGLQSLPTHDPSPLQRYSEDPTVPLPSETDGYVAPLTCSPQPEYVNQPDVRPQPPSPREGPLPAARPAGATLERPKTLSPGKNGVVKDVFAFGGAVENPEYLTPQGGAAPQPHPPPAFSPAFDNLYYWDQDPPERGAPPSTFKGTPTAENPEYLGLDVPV
Assay Explanation: FRET-based coupled-enzyme protein kinase inhibition assay
Assay type: biochemical
Condition Notes: compound at 10 µM, 1% DMSO
Parameter Measured: inhibition at 10 µM (%)
Quick note: give the figure in %, leave out the unit.

Worked cases, inhibition at 10 µM given:
Fill in the blank: the reported inhibition at 10 µM of CC(C)N1CCC(NC(=O)OC[C@H]2O[C@@H](n3cnc4c(N)ncnc43)[C@H](O)[C@@H]2O)CC1 is ____.
-7

Follow-up entry: Nc1ncnc2c1ncn2[C@@H]1O[C@H](COC(=O)N2CCC[C@H]2CO)[C@@H](O)[C@H]1O
-19

Next: CS(=O)(=O)N1CC2(CCN(C(=O)OC[C@H]3O[C@@H](n4cnc5c(N)ncnc54)[C@H](O)[C@@H]3O)CC2)c2ccccc21
5

Could you do the same for Nc1ncnc2c1ncn2[C@@H]1O[C@H](COC(=O)NC[C@H](O)CO)[C@@H](O)[C@H]1O , please?
-7

Next:
Which inhibition at 10 µM reading was recorded for the compound Nc1ncnc2c1ncn2[C@@H]1O[C@H](COC(=O)N[C@@H]2CCN(Cc3ccccc3)C2)[C@@H](O)[C@H]1O ?
-5

# iterate: CN1CCN(CCNC(=O)OC[C@H]2O[C@@H](n3cnc4c(N)ncnc43)[C@H](O)[C@@H]2O)CC1
-14

The origin of these recorded values is patent EP3212201B1.
